Values compiled from patent US20130131075A1.

pKi overview
target: cynomolgus BK1-receptor (Macaca fascicularis)
Sequence (Q3BCU0 whole entry): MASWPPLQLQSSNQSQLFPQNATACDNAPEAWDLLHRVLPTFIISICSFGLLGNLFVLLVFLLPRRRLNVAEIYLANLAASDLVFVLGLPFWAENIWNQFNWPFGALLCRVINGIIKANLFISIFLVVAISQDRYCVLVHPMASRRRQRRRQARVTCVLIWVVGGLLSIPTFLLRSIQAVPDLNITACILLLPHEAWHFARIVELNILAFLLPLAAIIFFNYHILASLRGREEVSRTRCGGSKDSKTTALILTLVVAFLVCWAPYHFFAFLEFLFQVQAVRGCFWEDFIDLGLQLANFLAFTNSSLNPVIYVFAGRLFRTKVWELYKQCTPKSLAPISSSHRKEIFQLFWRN
Would you please state pKi, meaning minus log10 of the concentration in mol/L, as a bare number?

Nc1cncc(C(=O)N[C@@]2(C(=O)NCc3ncc(Nc4c(F)cccc4C(F)(F)F)cc3F)CCOC2)c1: 7.05
CNc1cncc(C(=O)N[C@@]2(C(=O)NCc3ncc(Nc4ccc(Cl)cc4C(F)(F)F)cc3F)CCOC2)c1: 7.24
COc1ncc(C(=O)NC2(C(=O)NCc3ccc(Nc4ccc(Cl)cc4C(F)(F)F)cn3)CC2)cn1: 8.12
Nc1cncc(C(=O)NC2(C(=O)NCc3ccc(Nc4ccc(Br)cc4C(F)(F)F)cn3)CC2)c1: 7.96
O=C(N[C@@]1(C(=O)NCc2ccc(Nc3ccc(F)cc3C(F)(F)F)cc2)CCOC1)c1cnc2cc[nH]c2c1: 6.42

Task item: Can you look up pKi on cynomolgus BK1-receptor (Macaca fascicularis) for Cc1ncc(C(=O)NC2(C(=O)NCc3ccc(Nc4ccccc4C(F)(F)F)cc3F)CC2)cn1 ?
Reply: 8.92

Task item: Can you look up pKi on cynomolgus BK1-receptor (Macaca fascicularis) for O=C(NC1(C(=O)NCc2ccc(Nc3ccc(Cl)cc3C(F)(F)F)cn2)CC1)c1cncc(F)c1 ?
Reply: 7.62

Task item: Can you look up pKi on cynomolgus BK1-receptor (Macaca fascicularis) for Nc1ccc(C(=O)N[C@@]2(C(=O)NCc3ccc(Nc4ccc(F)cc4C(F)(F)F)cc3)CCOC2)cn1 ?
Reply: 6.74
